Data provenance is the supplement of paper PMC9170038.

Entries annotated with measured apparent KD of MS2 coat protein
Tested on: MS2 coat protein
Experiment: apparent KD of MS2 coat protein; designed switch direction (-1 OFF switch, 1 ON switch): -1; higher = weaker reporter binding
Conditions: Eterna round: R98; input ligand: FMN 200 uM
Kindly answer with a numeric value in nM, unit omitted.

Some solved entries appear below for comparison.
polymer.sequence	number
CUGUGACGGAUCCAGAAUUACAACAUGAGGAUCACCCAUGUGCAGGAUAUCGGGUUGAUAGGCGCCGAGAAGGGUAUGAUCACG [Ex NG2 #37]	77.3
UCUUAAAUGAUCCUAUUUACCAACAUGAGGAUCACCCAUGUGCAGGAUAUGCUAAAGAUAAAUAAGCAGAAGGGCAAUAACCGC [JR_ExcNG3_Sub007]	608
UCAUACAUGAGGAUCACCCAUGACAUGAGGAUCACCCAUGUGCAGGAUAUACGUGAUAUAAUAUAGUAGAAGGGCAGACUAUAA [LRO006_Exclusion NG 3]	53
GGUACUCAAAGAGUACCAAUACGAACAUGAGGAUCACCCAUGUAGGAUAUGCUACUCAAAGAGUAGCAGAAGGACAUGUGUAAA [OmeiMod 10 - Jieux - Exclusion NG 3]	567
AUGCCGUGCAGAGCGCAACGGCGUACAUGAGGAUCACCCAUGUAGGAUAUACUACACAAAGUGUAGUAGAAGGACAUGCGACUG [Ex NG2 #93]	185

# apparent KD of MS2 coat protein lookup, item AAAAGAACCCGAGGAUAUGCGAAAUCACGAAGAGCAGAAGGCGGCUACAUGUGGAUCCGAGGACAUGAGGAUCACCCAUGUACG [Iszaaatce]
165

* * *

Tested on: MS2 coat protein
Assay: apparent KD of MS2 coat protein; designed switch direction (-1 OFF switch, 1 ON switch): 1; higher = weaker reporter binding
Settings: input ligand: FMN 200 uM
parameter.measured: apparent KD of MS2 coat protein (nM)
Kindly answer with a numeric value in nM, unit omitted.

polymer.sequence	system.name	apparent KD of MS2 coat protein [nM]
UUUGGGUGGCUGGAGGAUAUCCUGGUUGUUACAUGAGGAUCACCCAUGUGCCGCGCGGUUCGCGAGGAGAAGGCUGGCGGCCGUU (Eterna round: R96, puzzle: Same State 2)	MS2 coat protein	42.4
AUAGUUGCCGAAGGAUAUGAUGAGGAUCACCCAUCAGAAGGUUGGCUAUUGGGUGGACAUGAGGAUCACCCAUGUUCUUUGGUA (Eterna round: R96, puzzle: Same State NG 1)	MS2 coat protein	64.2

Then there is this sequence:
# apparent KD of MS2 coat protein lookup, item GUUACAUGAGGAUCACCCAUGUAUGUGUGGGAGUAAGUGUCUUAGGAUAUCUGUUAUUUAAUUCAAGAGAAGGAAGAUUGUUGU [JMF's solution 46] (Eterna round: R96, puzzle: Same State NG 3)
94.6

* * *

Tested on: MS2 coat protein
Assay: apparent KD of MS2 coat protein; designed switch direction (-1 OFF switch, 1 ON switch): 1; higher = weaker reporter binding
Conditions: input ligand: FMN 200 uM
Entries annotated with measured apparent KD of MS2 coat protein
Kindly answer with a numeric value in nM, unit omitted.

Some solved entries appear below for comparison.
polymer.sequence	u	apparent KD of MS2 coat protein
GUUACAUGAGGAUCACCCAUGUAUGUGUGGGAGUAAGUGUCUUAGGAUAUCUGUUAUUUAAAUUAAGAGAAGGAAGAUUGUUGU [JMF's solution 8] (Eterna round: R96, puzzle: Same State NG 3)	nM	120
GCGAAGAGGUAAGGAUAUUCAUGGCGUAGACAUGAGGAUCACCCAUGUAGGAGACGAAUUAAAAGGGAGAAGGUACCAGGACGC [AK SSNG2-V2-16] (Eterna round: R96, puzzle: Same State NG 2)	nM	50.1

Then there is this sequence:
# apparent KD of MS2 coat protein lookup, item AGAUCAUGACGAGGAUAUGGUACAUGAGGAUCACCCAUGUAUGUACCAUAACGCGUACGACGAAACCAGAAGGCGUCGUGGUCA [JL SSNG2 1.08] (Eterna round: R96, puzzle: Same State NG 2)
11.7

* * *

Test system: MS2 coat protein
Experiment: apparent KD of MS2 coat protein; designed switch direction (-1 OFF switch, 1 ON switch): -1; higher = weaker reporter binding
Conditions: input ligand: none
Entries annotated with measured apparent KD of MS2 coat protein
Kindly answer with a numeric value in nM, unit omitted.

polymer.sequence	apparent KD of MS2 coat protein / nM
GGUAACAUGAGGAUCACCCAUGUGAUACGUUACAUAUAAACCGAGGAUAUACCCUCAGAACGAGGGUAGAAGGUGGGACGACAC [Eternabot solution 8] (Eterna round: R96, puzzle: Exclusion NG 3)	102

Then there is this sequence:
# apparent KD of MS2 coat protein lookup, item AGUUGUUGCGCAGGAUAUGAGGAUCACCCAUAGUAGGAUAUCGAAAGGGAAGGACUGAGGAUUACCCAGAAGGGCGUGAUGACA [pwkr exNG2 2xF5 2xFMN.7] (Eterna round: R96, puzzle: Exclusion NG 2)
302

* * *

Entries annotated with measured apparent KD of K4 kissing-loop reporter
Tested on: K4 kissing-loop RNA reporter;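 note: bound reporter read as fluorescence of individual clusters on recovered sequencing chips by microscopy, with normalized cluster intensities fitted with a binding model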
Experiment: apparent KD of K4 kissing-loop reporter; higher = weaker reporter binding
Details: Eterna round: R107; input ligand: FMN 200 uM
Kindly answer with a numeric value in nM, unit omitted.

Some solved entries appear below for comparison.
> print(dat)
                           polymer.sequence   u  number
1  UUAGAGAUCUCAGGAUAUCAGUGAUGUUGGUGUGCAGAUCUGAGAUAGAAUUCUAUCUCAGAUCAAUGAGAAGGGAGAUCUCAUU [AK5 Exc FMN B]  nM     303
2  UGUAUGUGAUUUGAUACCAGACCAUCUUGUGAGAAAUGAGUGAUGUUUAUUUUGGUUUGGGUCCCUUGGCAGCAAAUCGCAUACU [KL-SSTheoB24]  nM     507

# apparent KD of K4 kissing-loop reporter lookup, item UAGGAGUGAUGUUCCUUUAGCAGGUAGGAAGGAGCGCCCAUUUGGGCAGGUAGGUCGCCUACUGGCCCUGAGUUAAACCUUAGGC [#11 K4 Arginine A Same State]
149

* * *

Entries annotated with measured apparent KD of MS2 coat protein
Test system: MS2 coat protein
Experiment: apparent KD of MS2 coat protein; designed switch direction (-1 OFF switch, 1 ON switch): -1; higher = weaker reporter binding
Settings: input ligand: none

polymer.sequence	result
GUCGUGCGGCAGUGCUGUACGAGUACAUGAGGAUCACCCAUGUAGGAUAUGGUUCGUUUUGCGUGCUAGAAGGGCGUGCGUUGA [Excl-NG3-LRO20] (Eterna round: R96, puzzle: Exclusion NG 3)	22 nM
UGAGUGUUAGGAUAUCGCGGUUAGGCGAGUUGCUUAAUGAUCGAGAAGGGACAUGAGGAUCACCCAUGUGGGAC [Eternabot (L1) Solution 40] (Eterna round: R97, puzzle: Exclusion 4)	112 nM
AGAUCACAUGAGGAUCACCCAUGUCAGGAUAUCGUCACUGGAGCCUCGGCUCCAGUGACGAGAAGGGAUAAUUA [E1/4-A2] (Eterna round: R97, puzzle: Exclusion 1)	69 nM
UAGCAUUGCCAAAGGUAGUGCAAAACAUGAGGAUCACCCAUGUAGGAUAUGGUAGGCAAAGCUUACCAGAAGGACAUGAUAAAU [Mat - Exclusion NG 3 - Mod of JL - D18] (Eterna round: R96, puzzle: Exclusion NG 3)	54.5 nM

Then there is this sequence:
# apparent KD of MS2 coat protein lookup, item UGAGCUUCAGGAUAUACGUGACGUCCGUGAGGACGAAGGUUACAUGAGGAUCACCCAUGUAGAAGGGAAGUUCU [Mat - Exclusion 2 - JL Mod - D31] (Eterna round: R97, puzzle: Exclusion 2)
31.6 nM

* * *

Tested on: MS2 coat protein
Experiment: apparent KD of MS2 coat protein; higher = weaker reporter binding
Conditions: Eterna round: R107; input ligand: arginine 13.2 mM
Outcome: MET for apparent KD of MS2 coat protein of at least 20 nM; NOT MET for anything lower.

Record UCGCUCUGGGUGGGAUCCGGAGAUGUGGAAGGAGCGCUGGUUACAGCAGGUAGGUCGCCAACGGACAUGAGGAUCACCCAUGUAC [Same State - Arginine A (Freestyle 16)] ; criterion: apparent KD of MS2 coat protein no lower than 20 nM. Met?
MET

Next sequence up: GCAUCCUAGUCGGCCGCCACUGGUACGAAUACCUUCACCCGUGUGCACAUGAGGAUCACCCAUGUCAGGACCGGGACUAGGAUGC [SSTryp B #23]
NOT MET

Next sequence up: AAUACCGGUCCUCGAGGGUGAUCCUCAUGACGAGGACCGGUACGGCCGCCACUCGAUAACAUGAGGAUCACCCAUGUAAUCGAGU [|T'-M'-Trp-Ms2|_Design7b]
MET

Next sequence up: GGAACAUGAGGAUCACCCAUGUAAUCACGACGAGGACCGGUACGGCCGCCACUCGUAUUCACGCAAGGUAGAGGAAUACGUAGGC [theeternabot_exclusion_MS2_Trp_A_2]
NOT MET

Next sequence up: CUCUGAGUCCGAAAGGACUCAGAGGCGGAUACCAGCGAGGUCCAUCGCCCUUGGCAGCCGAACAUGAGGAUCACCCAUGUCGGUA [#1 Same State - Theophylline A Attempt #28 (HarryS)]
NOT MET

Next sequence up: GGGAGAUGAAUAGAAUGAGAUGACACAGAAGGAGCGUGAAUUAACACAGGUAGGUCGCUGACAACAUGAGGAUCACCCAUGUAUU [Same State Arginine A GF3]
NOT MET

Next sequence up: AACAACAAGGGAAGGAGCGCGAAUAAUAAACAUGAGGAUCACCCAUGUAUCAUGGGCUUAACGCAGGUAGGUCGCCCACAAACAA [Exclusion Arginine B GF1]
MET

Next sequence up: AUGCAUGUCAGAAGGAGCGUCAGUAACAUGAGGAUCACCCAUGUAACAUUGAAUUCGAUGAGACAGGUAGGUCGCUGAAUAGUAA [JR_SSArginiB_Sub019]
MET

Next sequence up: AACAUACAAUAAUAGGUGGAUAUAAGGCGGCGAGGACCGGUACGGCCGCCACUCGCGUACAUGAGGAUCACCCAUGUCUGAAACU [Same State - Tryptophan A (Freestyle 3)]
NOT MET

Next sequence up: AAGACAUGAGGAUCACCCAUGUCGUCUACACGAGGACCGGUACGGCCGCCACUCGUUUGCCAAUGAGCGCAUGCGGCCUGGGUAU [Exclusion Tryp A GF3]
NOT MET

Next sequence up: GCAUCCUAGUCGGCCGCCACUGCAACAUGAGGAUCACCCAUGUACUGCACAUGGGAAUGCAGUAGCAGGACCGGGACUAGGAUGC [(T1)-(M1)-(M2)-(T)''-(M)'-(T)'-(T2)_Design2_2/18/17]
MET

Next sequence up: AAUGUAUGGCACAUGAGGAUCACCCAUGUGCGAGGACCGGUACGGCCGCCACUCGGUCCUGGGAUCUUAAUACUAUACAUUAAUG [XTryp A #19]
NOT MET

Next sequence up: AUACCGAGUGAGUCGUGUUUCUUUUCAGAUACCAGACUUUUCGUUGUCCCUUGGCAGCUGUUUUACAUGAGGAUCACCCAUGUUG [#28 Exclusion-TheophyllineA]
NOT MET

Next sequence up: UGGUACAUGGCGGCCGCCACUUCACGUAAAAUAAAAACUUGAGGAACACCCAAGUAAUAAGUUGGGAGGACCGGGUCAUGUACCU
MET

Next sequence up: CCUAACCGAUCGGCCGCCACUGACCGGUACCUCUUCGAAACCCGCCACAUGAGGAUCACCCAUGUCAGGACCGGGAUUGCACAGG [Inxeus]
NOT MET

Next sequence up: GGAGCUACGUCGGCCGCCACUAGCGGGUAUUGCGUGUACAUGAGGAUCACCCAUGUAAUAUGGCCUAGGACCGGGACGUAGCUCC [Bison]
NOT MET

Next sequence up: CAUGUUAGGGCGGCCGCCACUGUGGCUACGGUACAUGAGGAUCACCCAUGUUUGUGGUUGAUCUACAGGACCGGGCCCUGACACG [Erarusge]
MET
